Target: dAsCas12a S542R (Acidaminococcus sp., UniProt U2UMQ6 1-1307, S542R;D908A;E993A;D1235A)
Assay: Spec-seq (native PAGE EMSA with sequencing of bound and unbound); 25 mM Tris-HCl pH 7.4, 150 mM KCl, 5 mM MgCl2, 10% glycerol, 1 mM DTT, 40 ng/uL salmon sperm DNA; 400 nM Cas12a, 480 nM crRNA, 50 nM library, 37 C 1 h; native PAGE at room temperature; high values mean tight binding;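 note: relative affinity from the bound to unbound sequence frequency ratio in Spec-seq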
Details: protein: recombinant
Hi there, I'd appreciate the recorded binding signal for every entry that follows.
Give your result in lnKA as a bare value.

Per the records, this binder ( CCAC (dsDNA) DNA 1: GCTATCTAGTGCTCAGTACGCACTGCCACAGGAAACTTCTGGCAGGACCAGGTCATGAGATCGGAAGAGCACACGTCTGAACTCCAGTCA DNA 2: TGACTGGAGTTCAGACGTGTGCTCTTCCGATCTCATGACCTGGTCCTGCCAGAAGTTTCCTGTGGCAGTGCGTACTGAGCACTAGATAGC RNA: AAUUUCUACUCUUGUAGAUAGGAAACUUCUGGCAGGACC ) has binding signal equal to -8.4

Per the records, this binder ( AGCC (dsDNA) DNA 1: GCTATCTAGTGCTCAGTACGCACTGAGCCAGGAAACTTCTGGCAGGACCAGGTCATGAGATCGGAAGAGCACACGTCTGAACTCCAGTCA DNA 2: TGACTGGAGTTCAGACGTGTGCTCTTCCGATCTCATGACCTGGTCCTGCCAGAAGTTTCCTGGCTCAGTGCGTACTGAGCACTAGATAGC RNA: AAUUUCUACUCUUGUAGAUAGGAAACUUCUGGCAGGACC ) has binding signal equal to -8.34

Per the records, this binder ( TCTT (dsDNA) DNA 1: GCTATCTAGTGCTCAGTACGCACTGTCTTAGGAAACTTCTGGCAGGACCAGGTCATGAGATCGGAAGAGCACACGTCTGAACTCCAGTCA DNA 2: TGACTGGAGTTCAGACGTGTGCTCTTCCGATCTCATGACCTGGTCCTGCCAGAAGTTTCCTAAGACAGTGCGTACTGAGCACTAGATAGC RNA: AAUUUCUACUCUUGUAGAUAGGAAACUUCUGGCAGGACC ) has binding signal equal to -7.22

Per the records, this binder ( TGGA (dsDNA) DNA 1: GCTATCTAGTGCTCAGTACGCACTGTGGAAGGAAACTTCTGGCAGGACCAGGTCATGAGATCGGAAGAGCACACGTCTGAACTCCAGTCA DNA 2: TGACTGGAGTTCAGACGTGTGCTCTTCCGATCTCATGACCTGGTCCTGCCAGAAGTTTCCTTCCACAGTGCGTACTGAGCACTAGATAGC RNA: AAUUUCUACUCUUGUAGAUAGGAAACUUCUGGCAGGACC ) has binding signal equal to -7.85

Per the records, this binder ( TGCA (dsDNA) DNA 1: GCTATCTAGTGCTCAGTACGCACTGTGCAAGGAAACTTCTGGCAGGACCAGGTCATGAGATCGGAAGAGCACACGTCTGAACTCCAGTCA DNA 2: TGACTGGAGTTCAGACGTGTGCTCTTCCGATCTCATGACCTGGTCCTGCCAGAAGTTTCCTTGCACAGTGCGTACTGAGCACTAGATAGC RNA: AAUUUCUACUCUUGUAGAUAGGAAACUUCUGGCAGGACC ) has binding signal equal to -8.02
